Measured DC50 by item
- TEST_TARGET: UniProtKB Q9NWZ3
- Sequence (Q9NWZ3 1-460): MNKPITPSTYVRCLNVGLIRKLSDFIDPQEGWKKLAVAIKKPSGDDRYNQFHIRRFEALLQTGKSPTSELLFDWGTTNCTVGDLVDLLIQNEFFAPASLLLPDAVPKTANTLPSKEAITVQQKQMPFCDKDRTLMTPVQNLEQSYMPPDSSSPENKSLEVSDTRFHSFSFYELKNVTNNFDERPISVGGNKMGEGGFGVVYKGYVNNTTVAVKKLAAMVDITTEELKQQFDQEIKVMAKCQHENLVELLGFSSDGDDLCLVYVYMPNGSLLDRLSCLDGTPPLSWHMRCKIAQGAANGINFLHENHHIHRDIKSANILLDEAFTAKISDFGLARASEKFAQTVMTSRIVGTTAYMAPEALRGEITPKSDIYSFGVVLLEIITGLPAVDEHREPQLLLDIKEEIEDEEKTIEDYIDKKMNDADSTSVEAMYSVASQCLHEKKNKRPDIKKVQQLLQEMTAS
- MEASUREMENT_DESCRIPTION: ALE THP1 HTRF (IRAK4 degradation in THP1 cells, HTRF with anti-IRAK4 antibodies)
- Type: cell-based
- Parameters: THP1 Homogeneous Time Resolved Fluorescence (ALE THP1 HTRF) Procedure; endogenous in cells; host or cells: THP1
- TEST_CONDITIONS: THP1 cell lysate, read-out: ALE THP1 HTRF EC50

Use these answered entries as a reference point.
COMPOUND	ENDPOINT_VALUE
N[C@@H]1C[C@@H](F)CN(c2ccn3ncc(C(=O)Nc4cn([C@H]5CC[C@H](C(=O)NC6CCN(c7cccc(C8CCC(=O)NC8=O)c7)CC6)CC5)nc4C(F)F)c3n2)C1 (stereo partly drawn)	> 10 µM
N[C@@H]1C[C@@H](F)CN(c2ccn3ncc(C(=O)Nc4cn([C@H]5CC[C@H](CCN6CCC[C@H](c7ccc(C8CCC(=O)NC8=O)cc7)C6)CC5)nc4C(F)F)c3n2)C1 (stereo partly drawn) [Compound P-28]	> 10 µM

Let's switch to this compound now.
In: Query DC50 on UniProtKB Q9NWZ3 for N[C@@H]1C[C@@H](F)CN(c2ccn3ncc(C(=O)Nc4cn([C@H]5CC[C@H](CCN6CCC[C@H](c7ccc(C8CCC(=O)NC8=O)cc7)C6)CC5)nc4C(F)F)c3n2)C1 (stereo in doubt) [Compound P-29]
Out: > 10 µM

---

Measured ALE THP1 HTRF YMIN by item
- TEST_TARGET: IRAK4 (Homo sapiens, UniProt Q9NWZ3)
- MEASUREMENT_DESCRIPTION: ALE THP1 HTRF (IRAK4 degradation in THP1 cells, HTRF with anti-IRAK4 antibodies)
- Type: cell-based
- Parameters: THP1 Homogeneous Time Resolved Fluorescence (ALE THP1 HTRF) Procedure; endogenous in cells; host or cells: THP1
- TEST_CONDITIONS: THP1 cell lysate, YMIN

Use these answered entries as a reference point.
MOLECULE	ENDPOINT_VALUE
N[C@@H]1C[C@@H](F)CN(c2ccn3ncc(C(=O)Nc4cn([C@H]5CC[C@H](CCN6CCC[C@H](c7ccc(C8CCC(=O)NC8=O)cc7)C6)CC5)nc4C(F)F)c3n2)C1 (stereo in doubt) [Compound P-29]	>95%
N[C@@H]1C[C@@H](F)CN(c2ccn3ncc(C(=O)Nc4cn([C@H]5CC[C@H](C(=O)N[C@H]6CC[C@@H](c7ccc(C8CCC(=O)NC8=O)nc7)CC6)CC5)nc4C(F)F)c3n2)C1 (stereo partly drawn) [Compound P-30]	>95%

In: Query ALE THP1 HTRF YMIN on IRAK4 (Homo sapiens, UniProt Q9NWZ3) for N[C@@H]1C[C@@H](F)CN(c2ccn3ncc(C(=O)Nc4cn([C@H]5CC[C@H](CN6CCC(Nc7cccc(C8CCC(=O)NC8=O)c7)CC6)CC5)nc4C(F)(F)F)c3n2)C1 (stereo partly drawn) [Compound P-8]
Out: >95%
